Would you kindly list apparent Kd for each of these sequences?
tested on: MS2 coat protein; test: apparent Kd, MS2 coat protein; higher = weaker binding; RNA-MaP array; settings: ligand present: theophylline; designed as: OFF switch for theophylline
Give bare numbers, in nM.

CGCCUACAGGUGUACUAUUGUGGUGAAGAUACCAGAUAGCCCAAUAUCCCUUGGCAGCUUCAGACAUGAGGAUCACCCAUGUAUC	27.6

Take each entry in turn and give its apparent Kd.
1. UAGCGAUCUCGUUAAAGGAUCCCAUUUGAUACCAGAGAACUUUGCCUCCCUUGGCAGCAAGUGACAUGAGGAUCACCCAUGUUGA
2. CCGGCGCGAUUAUGGGUUUGCUUUUACGAUACCAGCCGCGUUCCGGGCCCUUGGCAGCGUGUAACAUGAGGAUCACCCAUGUUCA
3. UGCGACAAGUGAAUACUUUGUUCUAGAGAUACCAGUUCCCGAGUGAACCCUUGGCAGCUCCCAACAUGAGGAUCACCCAUGUAUU
4. UCAUUGAGAGUCAUCCAGCGUUAAUGGGAUACCAGAGUUCUUUUACUCCCUUGGCAGCCCGGAACAUGAGGAUCACCCAUGUCUG

1. 23.9
2. 13.2
3. 28.5
4. 80.8
